# System name: T1, IL23R_huFC (human, UniProt Q5VWK5 24-353)
# T1 sequence (looked up): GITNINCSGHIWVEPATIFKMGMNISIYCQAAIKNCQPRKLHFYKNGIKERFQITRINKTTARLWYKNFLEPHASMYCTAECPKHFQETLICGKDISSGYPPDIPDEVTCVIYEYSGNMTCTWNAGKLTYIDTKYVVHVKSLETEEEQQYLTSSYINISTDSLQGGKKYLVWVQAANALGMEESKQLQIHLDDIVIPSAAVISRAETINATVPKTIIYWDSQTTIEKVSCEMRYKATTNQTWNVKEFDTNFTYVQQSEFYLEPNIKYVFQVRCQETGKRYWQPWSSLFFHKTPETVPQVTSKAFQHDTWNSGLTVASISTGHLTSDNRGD
# Assay info: human ELISA vs IL-23
pIC50: −log10 of the molar value. *1 amine or outer side, *2 acyl side, *3 side chain or, on linkers, in order; H or OH if unused. Bridges are numbered along the chain shown (N, C = ends). Primed or numbered codes have the meaning given here. [ ]: non-standard residue; d: D form. Phe(4-OMe)(3) = O-methyl-L-tyrosine (4-methoxy-L-phenylalanine), COc1ccc(C[C@H](N[*:1])C(=O)[*:2])cc1; 2Nal = N[C@@H](Cc1ccc2ccccc2c1)C(=O)O; AEF = NCCOc1ccc(C[C@H](N)C(=O)O)cc1; αMeK = C[C@](N)(CCCCN)C(=O)O; αMeS = C[C@](N)(CO)C(=O)O; Abu = CC[C@H](N)C(=O)O; Dap = NC[C@H](N)C(=O)O; AEA = NCCOCC(=O)O
Reported pIC50 values are given for each entry in this list.

>>> reported_value("Ac-[Abu]QTWQC[AEF][2Nal][αMeK]K(Ac)NG[AEA][dK]-NH2 (thioether 1-6) [Ac-Cyclo-[[Abu]-QTWQC]-[Phe[4-(2-aminoethoxy)]]-[2-Nal][α-MeLys]-[Lys(Ac)]--NG-[AEA]-[(D)Lys]-NH2]")
"> 8.00"
>>> reported_value("Ac-[Abu]QTWQC[AEF]W[αMeK]K(Ac)[Dap]G-NH2 (thioether 1-6) [Ac-Cyclo-[[Abu]-QTWQC]-[Phe[4-(2-aminoethoxy)]]-W-[α-MeLys]-[Lys(Ac)]-[Dap]-G-NH2]")
"< 6.00"
>>> reported_value("Ac-[Abu]QTWQC[AEF][2Nal][αMeS]K(Ac)NG-NH2 (thioether 1-6) [Ac-Cyclo-[[Abu]-QTWQC]-[Phe[4-(2-aminoethoxy)]]-[2-Nal]-[α-MeSer]-[Lys(Ac)]-NG-NH2]")
"> 8.00"

What value of pIC50 has been recorded for this entry: Ac-[Abu]QTWQC[Phe(4-OMe)(3)][2Nal][αMeK]K(Ac)NA-NH2 (thioether 1-6) [Ac-Cyclo-[[Abu]-QTWQC]-[Phe(4-OMe)]-[2-Nal][α-MeLys]-[Lys(Ac)]-NA-NH2]
> 8.00

I would be grateful if you could share the reported pIC50 for Ac-[Abu]QTWQC[AEF][2Nal][αMeK]NNG-NH2 (thioether 1-6) [Ac-Cyclo-[[Abu]-QTWQC]-[Phe[4-(2-aminoethoxy)]]-[2-Nal]-[α-MeLys]-NNG-NH2] .
> 8.00
